Taken from patent US20260116991A1.

# Tested Target: T1, human GPC3 on CHO-K1-human GPC3 cells (clone CHOK1-hGPC3.2B5) (human, UniProt P51654 25-554)
# T1 construct: whole, on cells; Stably transfected CHO-K1 clone 2B5
# Test Method Notes: FACS on CHOK1-hGPC3.2B5 cells;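 note: flow cytometry binding of chimeric antibodies to the cells, read out as mean fluorescence intensity, with the half-maximal concentration derived by curve fitting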
Parameter: EC50. Scope: all listed entries.
Please reply with the bare figure in pM and do not write the unit itself.

Binder | Numeric Readout
F1.41.17 human-murine chimeric antibody (antibody, human IgG1, kappa, V domains shown) VH: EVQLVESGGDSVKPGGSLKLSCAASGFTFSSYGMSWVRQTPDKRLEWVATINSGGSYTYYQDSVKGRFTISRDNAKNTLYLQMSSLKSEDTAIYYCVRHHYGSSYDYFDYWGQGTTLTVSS VL: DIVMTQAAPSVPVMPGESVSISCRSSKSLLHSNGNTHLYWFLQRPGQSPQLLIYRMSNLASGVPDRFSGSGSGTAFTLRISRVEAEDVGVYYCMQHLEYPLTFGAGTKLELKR | 550

If you can, please state the reported EC50 value of F1.42.8 human-murine chimeric antibody (antibody, human IgG1, kappa, V domains shown) VH: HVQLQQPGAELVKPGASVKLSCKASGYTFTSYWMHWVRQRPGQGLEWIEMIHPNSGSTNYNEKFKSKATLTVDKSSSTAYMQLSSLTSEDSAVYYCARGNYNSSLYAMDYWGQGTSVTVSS VL: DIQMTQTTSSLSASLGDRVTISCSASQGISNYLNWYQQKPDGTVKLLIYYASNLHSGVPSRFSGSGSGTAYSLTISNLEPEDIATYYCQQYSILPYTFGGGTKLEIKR .
400

Here is the next binder: F3.81.19 human-murine chimeric antibody (antibody, human IgG1, kappa, V domains shown) VH: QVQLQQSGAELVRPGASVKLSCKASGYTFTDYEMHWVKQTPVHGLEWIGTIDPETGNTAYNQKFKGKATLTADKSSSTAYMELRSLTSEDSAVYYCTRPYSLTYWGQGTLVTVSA VL: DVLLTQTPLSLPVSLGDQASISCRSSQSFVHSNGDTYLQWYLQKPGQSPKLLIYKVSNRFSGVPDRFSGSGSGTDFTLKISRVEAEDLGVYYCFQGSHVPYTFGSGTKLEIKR
2580
